Values from ChEMBL document CHEMBL3232916

biological target: Prostaglandin G/H synthase 2 (Homo sapiens); assay: Inhibition of human recombinant COX2 assessed as prostaglandin F2alpha level
Sequence (P35354 whole entry): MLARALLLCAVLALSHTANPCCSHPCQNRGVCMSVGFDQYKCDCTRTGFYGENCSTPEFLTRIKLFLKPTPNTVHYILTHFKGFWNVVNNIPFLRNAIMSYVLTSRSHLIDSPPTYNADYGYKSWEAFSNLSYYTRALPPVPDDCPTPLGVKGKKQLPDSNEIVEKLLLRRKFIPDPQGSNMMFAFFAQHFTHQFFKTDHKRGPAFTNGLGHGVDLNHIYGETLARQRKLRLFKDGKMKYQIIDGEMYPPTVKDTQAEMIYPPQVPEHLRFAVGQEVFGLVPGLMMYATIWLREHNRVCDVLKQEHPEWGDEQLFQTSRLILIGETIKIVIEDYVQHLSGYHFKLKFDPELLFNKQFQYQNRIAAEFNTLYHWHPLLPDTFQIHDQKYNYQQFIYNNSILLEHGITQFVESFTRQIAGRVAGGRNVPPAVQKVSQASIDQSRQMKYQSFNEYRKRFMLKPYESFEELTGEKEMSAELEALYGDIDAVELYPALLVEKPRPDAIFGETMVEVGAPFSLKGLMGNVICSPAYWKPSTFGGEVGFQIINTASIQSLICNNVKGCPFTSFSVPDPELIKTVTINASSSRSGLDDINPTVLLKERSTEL
Entries and their measured IC50 follow.

Below, each entry is followed by its recorded IC50 result.
{"COMPOUND_STRING": "COc1ccc(-n2nc(C(=O)Nc3ccc(OC)c(OC)c3)nc2-c2cc(OC)c(OC)c(OC)c2)cc1", "RECORDED_METRIC": "IC50", "READING": "> 100 µM"}
{"COMPOUND_STRING": "COc1ccc(-n2nc(C(=O)Nc3ccc(Br)cc3)nc2-c2cc(OC)c(OC)c(OC)c2)cc1", "RECORDED_METRIC": "IC50", "READING": "> 100 µM"}

Read the next record carefully.
Short answer please: IC50, Prostaglandin G/H synthase 2 (Homo sapiens), entry `COc1ccc(-n2nc(C(=O)Nc3ccc(Cl)cc3)nc2-c2cc(OC)c(OC)c(OC)c2)cc1`
> 100 µM
